Just for reference, the supplement of paper PMC9170038 is where these values come from.

# Test system: K4 kissing-loop RNA reporter;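 also: bound reporter read as fluorescence of individual clusters on recovered sequencing chips by microscopy, with normalized cluster intensities fitted with a binding model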
# PROTOCOL_DETAILS: apparent KD of K4 kissing-loop reporter; higher = weaker reporter binding
# TEST_PARAMETERS: Eterna round: R107; input ligand: FMN 200 uM
REPORTED_ENDPOINT: apparent KD of K4 kissing-loop reporter (nM)
Quick reminder: number only, in nM, skip the unit.

AUUUGUUUAUGUGAUACCAGACUAAGCAGUGAUGUUGCUUUUAUUUUUGAAUUUUAAAUAGUCCCUUGGCAGCACUAUGUAUUUA [JR_SSTheophyB_Sub010]    60.6
ACGACUGGAUGAAUAACAUCUAGUCGAGAUCGAGGACCGGUACGGCCGCCACUCGAGCUAACUGCGAGUGAUGUUCGAUAAUAAA [#OpenEnded 2]    277
ACGUGUCACUGAAGGAGCGUCUACCGAAUACGAGUGAUGUUCGUACACCACUGAUAUAGUGGACAGGUAGGUCGCAGUGAUACGU [Arg B Ex t3]    120
UGUCAUUGGUCGGCCGCCACUAGGACCGGGAGUAACCUAGUGAUGUUAGUGUGCUCGGCCGCCACUAGGACCGGGACCGAUGACU [KL-SSTryp-B22 #DoubleAptamer]    180
AGUGAUGUGGGAAGGAGCGGUAUAUGAGUUCAGUGAUGUUGAAGUGAUGCUGUAGUGUUGUGCCAGGUAGGUCGCCUAGAUGUUA [KL-XARG B25]    333

Q: Need apparent KD of K4 kissing-loop reporter, item UGACUACAAAAGGAAUAAUCCUAGUGAUGUUAGGAUAUGCUGAUAAGCAGAAGGAACUGAGAUCGAAAGAUCUCAAAUGUAGUCU [FmnAX 25 Mat Inspired #SwitchBubble #StaticStem #K4Early]
A: 116
